- ASSAY SUMMARY: Measurement of the approximate solubility (solvent added in steps to the solid)
- Format: physicochemical
- CONDITION NOTES: ethyl acetate/n-heptane 1:1 v/v, 23 °C, organic solvent or mixture, thermodynamic from solid, ethyl acetate/n-heptane 1:1 v/v, 23° C.; read-out: Solubility

COMPOUND | READOUT UNIT | solubility
C[C@](O)(COc1ccc(C#N)cc1)C(=O)Nc1ccc(C#N)c(C(F)(F)F)c1 [Form A] | mg/mL | 65

----------
- ASSAY SUMMARY: Measurement of the approximate solubility (solvent added in steps to the solid)
- Format: physicochemical
- CONDITION NOTES: ethyl acetate/n-heptane 1:3 v/v, 23 °C, organic solvent or mixture, thermodynamic from solid, ethyl acetate/n-heptane 1:3 v/v, 23° C. (turbid solution); read-out: Solubility

COMPOUND | solubility
C[C@](O)(COc1ccc(C#N)cc1)C(=O)Nc1ccc(C#N)c(C(F)(F)F)c1 [Form A] | < 5000 µg/mL

----------
- ASSAY SUMMARY: Measurement of the approximate solubility (solvent added in steps to the solid)
- Type: physicochemical
- CONDITION NOTES: ethyl acetate/n-pentane 1:2 v/v, 23 °C, organic solvent or mixture, thermodynamic from solid, ethyl acetate/n-pentane 1:2 v/v, 23° C.; read-out: Solubility

MOLECULE | solubility (mg/mL)
C[C@](O)(COc1ccc(C#N)cc1)C(=O)Nc1ccc(C#N)c(C(F)(F)F)c1 [Form A] | 13

----------
- ASSAY SUMMARY: Measurement of the approximate solubility (solvent added in steps to the solid)
- Assay type: physicochemical
- CONDITION NOTES: acetic acid, 23 °C, organic solvent or mixture, thermodynamic from solid, acetic acid, 23° C.; read-out: Solubility

MOLECULE | solubility
C[C@](O)(COc1ccc(C#N)cc1)C(=O)Nc1ccc(C#N)c(C(F)(F)F)c1 [Form A] | > 200 mg/mL

----------
- ASSAY SUMMARY: Measurement of the approximate solubility (solvent added in steps to the solid)
- Type: physicochemical
- CONDITION NOTES: acetonitrile/toluene 1:3 v/v, 23 °C, organic solvent or mixture, thermodynamic from solid, acetonitrile/toluene 1:3 v/v, 23° C.; read-out: Solubility
ENDPOINT: solubility

MOLECULE | MEASURED
C[C@](O)(COc1ccc(C#N)cc1)C(=O)Nc1ccc(C#N)c(C(F)(F)F)c1 [Form A] | 170 mg/mL

----------
- ASSAY SUMMARY: Relative stability of toluene solvate in toluene / solubility in toluene
- Type: physicochemical
- CONDITION NOTES: toluene, organic solvent or mixture
ENDPOINT: solubility

MOLECULE | MEASURED
C[C@](O)(COc1ccc(C#N)cc1)C(=O)Nc1ccc(C#N)c(C(F)(F)F)c1 [Form S-1] | < 2 mg/mL

----------
- ASSAY SUMMARY: Measurement of the approximate solubility (solvent added in steps to the solid)
- Type: physicochemical
- CONDITION NOTES: methyl acetate/n-pentane 1:2 v/v, 23 °C, organic solvent or mixture, thermodynamic from solid, methyl acetate/n-pentane 1:2 v/v, 23° C.; read-out: Solubility

COMPOUND | solubility
C[C@](O)(COc1ccc(C#N)cc1)C(=O)Nc1ccc(C#N)c(C(F)(F)F)c1 [Form A] | 8000 µg/mL

----------
- ASSAY SUMMARY: Measurement of the approximate solubility (solvent added in steps to the solid)
- Type: physicochemical
- CONDITION NOTES: acetone/n-heptane 1:1 v/v, 23 °C, organic solvent or mixture, thermodynamic from solid, acetone/n-heptane 1:1 v/v, 23° C.; read-out: Solubility

COMPOUND | solubility
C[C@](O)(COc1ccc(C#N)cc1)C(=O)Nc1ccc(C#N)c(C(F)(F)F)c1 [Form A] | > 200 mg/mL

----------
- ASSAY SUMMARY: Measurement of the approximate solubility (solvent added in steps to the solid)
- Format: physicochemical
- CONDITION NOTES: acetone, 23 °C, organic solvent or mixture, thermodynamic from solid, acetone, 23° C.; read-out: Solubility
ENDPOINT: solubility

MOLECULE | MEASURED
C[C@](O)(COc1ccc(C#N)cc1)C(=O)Nc1ccc(C#N)c(C(F)(F)F)c1 [Form A] | > 200 mg/mL

----------
- ASSAY SUMMARY: Measurement of the approximate solubility (solvent added in steps to the solid)
- Type: physicochemical
- CONDITION NOTES: ethanol, 23 °C, organic solvent or mixture, thermodynamic from solid, ethanol, 23° C.; read-out: Solubility
ENDPOINT: solubility

COMPOUND | MEASURED
C[C@](O)(COc1ccc(C#N)cc1)C(=O)Nc1ccc(C#N)c(C(F)(F)F)c1 [Form A] | > 200 mg/mL

----------
- ASSAY SUMMARY: Measurement of the approximate solubility (solvent added in steps to the solid)
- Assay type: physicochemical
- CONDITION NOTES: THF/n-heptane 1:3 v/v, 23 °C, organic solvent or mixture, thermodynamic from solid, THF/n-heptane 1:3 v/v, 23° C.; read-out: Solubility

COMPOUND | solubility [mg/mL]
C[C@](O)(COc1ccc(C#N)cc1)C(=O)Nc1ccc(C#N)c(C(F)(F)F)c1 [Form A] | 65

----------
- ASSAY SUMMARY: Measurement of the approximate solubility (solvent added in steps to the solid)
- Assay type: physicochemical
- CONDITION NOTES: dichloromethane, 23 °C, organic solvent or mixture, thermodynamic from solid, dichloromethane, 23° C.; read-out: Solubility
ENDPOINT: solubility

COMPOUND | MEASURED
C[C@](O)(COc1ccc(C#N)cc1)C(=O)Nc1ccc(C#N)c(C(F)(F)F)c1 [Form A] | > 200 mg/mL

----------
- ASSAY SUMMARY: Measurement of the approximate solubility (solvent added in steps to the solid)
- Assay type: physicochemical
- CONDITION NOTES: THF, 23 °C, organic solvent or mixture, thermodynamic from solid, THF, 23° C.; read-out: Solubility

COMPOUND | solubility
C[C@](O)(COc1ccc(C#N)cc1)C(=O)Nc1ccc(C#N)c(C(F)(F)F)c1 [Form A] | > 200 mg/mL

----------
- ASSAY SUMMARY: Water solubility of solid forms A and B′ (suspension shaken, filtered, HPLC; residue by Raman)
- Type: physicochemical
- CONDITION NOTES: water, 22 °C, water, thermodynamic from solid, stated as embodiment, read-out: solubility in water
ENDPOINT: solubility

COMPOUND | ENDPOINT | MEASURED
C[C@](O)(COc1ccc(C#N)cc1)C(=O)Nc1ccc(C#N)c(C(F)(F)F)c1 [Form A] | solubility | 20 to 30 µg/mL

----------
- ASSAY SUMMARY: Measurement of the approximate solubility (solvent added in steps to the solid)
- Format: physicochemical
- CONDITION NOTES: ethanol/water 1:1 v/v, 23 °C, aqueous with cosolvent or surfactant or cyclodextrin, thermodynamic from solid, ethanol/water 1:1 v/v, 23° C.; read-out: Solubility
ENDPOINT: solubility (mg/mL)

COMPOUND | ENDPOINT | READOUT UNIT | MEASURED
C[C@](O)(COc1ccc(C#N)cc1)C(=O)Nc1ccc(C#N)c(C(F)(F)F)c1 [Form A] | solubility | mg/mL | 50

----------
- ASSAY SUMMARY: Measurement of the approximate solubility (solvent added in steps to the solid)
- Assay type: physicochemical
- CONDITION NOTES: ethyl acetate/n-heptane 1:2 v/v, 23 °C, organic solvent or mixture, thermodynamic from solid, ethyl acetate/n-heptane 1:2 v/v, 23° C. (B′: solid form transformation into solid form A); read-out: Solubility
ENDPOINT: solubility

MOLECULE | ENDPOINT | MEASURED
C[C@](O)(COc1ccc(C#N)cc1)C(=O)Nc1ccc(C#N)c(C(F)(F)F)c1 [Form A] | solubility | 9000 µg/mL

----------
- ASSAY SUMMARY: Measurement of the approximate solubility (solvent added in steps to the solid)
- Format: physicochemical
- CONDITION NOTES: acetonitrile/toluene 1:1 v/v, 23 °C, organic solvent or mixture, thermodynamic from solid, acetonitrile/toluene 1:1 v/v, 23° C.; read-out: Solubility

COMPOUND | solubility
C[C@](O)(COc1ccc(C#N)cc1)C(=O)Nc1ccc(C#N)c(C(F)(F)F)c1 [Form A] | > 200 mg/mL
